target: Recombinant human cathepsin A (Homo sapiens)
Construct: Recombinant human cathepsin A (residues 29-480, with a C-terminal 10-His tag); 10-His (C); purchased R&D Systems 1049-SE
Sequence (P10619 29-312 limits assumed): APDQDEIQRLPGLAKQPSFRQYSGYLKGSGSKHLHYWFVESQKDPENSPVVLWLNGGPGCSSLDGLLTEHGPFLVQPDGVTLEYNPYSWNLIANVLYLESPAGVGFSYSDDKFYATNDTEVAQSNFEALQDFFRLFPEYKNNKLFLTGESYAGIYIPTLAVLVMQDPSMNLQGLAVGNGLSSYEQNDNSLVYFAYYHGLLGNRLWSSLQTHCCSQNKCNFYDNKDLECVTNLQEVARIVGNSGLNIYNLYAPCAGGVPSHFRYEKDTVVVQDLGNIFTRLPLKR
Sequence (P10619 327-480 limits assumed): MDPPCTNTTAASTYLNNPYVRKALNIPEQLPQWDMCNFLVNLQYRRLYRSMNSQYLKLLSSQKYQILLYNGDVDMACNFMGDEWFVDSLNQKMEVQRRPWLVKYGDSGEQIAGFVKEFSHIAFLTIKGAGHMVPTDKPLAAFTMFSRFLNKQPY
assay.procedure: Cathepsin A inhibitory activity
Assay type: biochemical
measurement.setup: read-out: Activity (2): Cathepsin A inhibitory activity (IC50 class)
property: IC50

>>> value_reported("Cc1ccccc1C(CC(=O)O)NC(=O)c1nn(-c2ccccc2F)c(O)c1C (stereo not shown)")
"100 to 1000 nM"
>>> value_reported("CCOc1cc(C(=O)N[C@@H](CC(=O)O)c2ccc(C(F)(F)F)cc2)nn1-c1ccccc1F")
"< 100 nM"
>>> value_reported("CCOc1cc(C(=O)NC(CC(=O)O)c2ccc(OC)cc2Cl)nn1-c1ccccc1F (stereo not shown)")
"< 100 nM"
>>> value_reported("COc1ccccc1[C@H](CC(=O)O)NC(=O)c1cc(OC)n(-c2ccccc2F)n1")
"100 to 1000 nM"
>>> value_reported("O=C(O)C[C@H](NC(=O)c1cc(OCC2CC2)n(-c2ccccc2F)n1)c1cccc(Cl)c1Cl")
"< 100 nM"
>>> value_reported("Cc1ccccc1[C@H](CC(=O)O)NC(=O)c1cc(OCC(C)(O)C(C)C)n(-c2ccccc2F)n1 (stereo partly shown)")
"< 100 nM"
>>> value_reported("Cc1ccccc1[C@H](CC(=O)O)NC(=O)c1cc(OC[C@@](C)(O)C(C)(C)C)n(-c2ccccc2F)n1 (single isomer, unassigned)")
"< 100 nM"
